Origin of the recorded values: PubChem BioAssay (NCATS)

- Tested on: UISO
- ASSAY_PROCEDURE: qHTS assay to identify novel small-molecules to repurpose for Merkel cell carcinoma treatment (AID 1296009); also: nearly all actives have a fitted effect of over 60% in size
- STATED_CONDITIONS: MCC and control cell lines, CellTiter-Glo viability, 72 h; series mostly up to 46 µM
- From the text: MCC is a rare and aggressive neuroendocrine skin cancer with limited treatment options. Approximately 80% of MCCs have the Merkel cell polyomavirus (MCPyV) DNA integrated into the host genome (virus-positive: VP-MCC) and viral oncogenes drive oncogenesis. The remaining MCCs are virus-negative (VN-MCC) and are caused by UV mutagenesis. […] Using cell viability as a readout (CellTiter-Glo assay) we found both overlapping and distinct drugs that can be repurposed for the treatment of VP-MCC and VN-MCC. […]
Inconclusive results are not listed. Activity calls are given as the source filed them. Calls follow the shape of the dose curve; as a rule, active = well fitted inhibition curve with a large enough effect; inconclusive = small, poorly fitted or top-dose-only effect; inactive = flat fitted curve, though single readings scatter.
Just give me one of these, please: active, inactive

CC(C)c1ccc2c(c1)c(SC(C)(C)C)c(CC(C)(C)C(=O)O)n2Cc1ccc(Cl)cc1 : inactive
CN1CCC(=C2c3ccccc3CCc3sccc32)CC1 : inactive
O=C1c2c(O)cc(O)cc2OC(c2ccc(O)c(O)c2)C1O (stereo not given) : inactive
CN(c1nccc(=O)[nH]1)C1CCN(c2nc3ccccc3n2Cc2ccc(F)cc2)CC1 : inactive

Asked: How was COc1cc(OC)c(C(=O)CCCN2CCCC2)c(OC)c1 classified in this test?
Given back: inactive

Asked: How was Cc1ccc(C)c(OCCCC(C)(C)C(=O)O)c1 classified in this test?
Given back: inactive

Asked: How was CC(C)C[C@H](NC(=O)[C@H](Cc1ccccc1)NC(=O)c1cnccn1)B(O)O classified in this test?
Given back: active

Asked: How was CN(C)C(=O)[C@H](O)[C@H](Cc1ccccc1)NC(=O)c1cc2cc(Cl)ccc2[nH]1 classified in this test?
Given back: active

Asked: How was CCN(CC)CCOc1ccc(Nc2ncc3cc(-c4c(Cl)cccc4Cl)c(=O)n(C)c3n2)cc1 classified in this test?
Given back: active

Asked: How was CCOC(=O)c1c(C)n(C)c2ccc(O)cc12 classified in this test?
Given back: inactive

----------
- ASSAY_PROCEDURE: Quantitative High-Throughput drug screen in 47 multiple myeloma cell lines against the NCATS MIPE library collection: KMM1_JCRB cell viability assay (AID 1918960);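 also: 100% = DMSO-treated cells and 0% = medium-only wells; nearly all actives have a fitted effect of over 30% in size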
- STATED_CONDITIONS: KMM1 myeloma viability, CellTiter-Glo ATP luminescence, 48 h; series mostly up to 45.8 µM
Records with an inconclusive call do not appear. The source made the active and inactive calls. Calls come from the whole dose curve; as a rule, active = well fitted cell-killing curve with a large enough effect; inconclusive = small, poorly fitted or top-dose-only effect, or effect the other way; inactive = no such curve, though single readings can be large or run the other way. Non-standard residues stand in square brackets, D forms with d. Residues, ends and D or L forms follow the SMILES beside them. *: point of attachment. Sta = CC(C)C[C@H](N)[C@@H](O)CC(=O)O; Isovaleryl = CC(C)CC(=O)*
Just give me one of these, please: active, inactive

Asked: How was CC(C)CC(=O)N[C@H](C(=O)N[C@H](C(=O)N[C@@H](CC(C)C)[C@@H](O)CC(=O)N[C@@H](C)C(=O)N[C@@H](CC(C)C)[C@@H](O)CC(=O)O)C(C)C)C(C)C (Isovaleryl-VV[Sta]A[Sta]-OH) classified in this test?
Given back: inactive

----------
- ASSAY_PROCEDURE: qHTS profiling of the MIPE4 collection as inhibitors of Plasmodium falciparum (DD2) proliferation (AID 743345)
- STATED_CONDITIONS: P. falciparum Dd2 in erythrocytes, SYBR Green DNA, 72 h; at 28.5 µM (top of the series) unless noted
// returns class 0 unless parasite growth remaining, % of DMSO control (lower = more inhibition) is strictly below 90%, in which case class 1

Cc1cccc(CN2CCN(C(c3ccccc3)c3ccc(Cl)cc3)CC2)c1 (stereo unspecified) : class 1

// next entry
Asked: Given the entry Nc1cc(C(Cl)=C(Cl)Cl)c(S(N)(=O)=O)cc1S(N)(=O)=O , would its reported parasite growth remaining, % of DMSO control (lower = more inhibition) be below 90%?
Given back: class 0

----------
- SYSTEM_UNDER_TEST: Cytochrome P450 2C9 (Homo sapiens) (UniProt P11712)
- Sequence (P11712 whole entry, looked up): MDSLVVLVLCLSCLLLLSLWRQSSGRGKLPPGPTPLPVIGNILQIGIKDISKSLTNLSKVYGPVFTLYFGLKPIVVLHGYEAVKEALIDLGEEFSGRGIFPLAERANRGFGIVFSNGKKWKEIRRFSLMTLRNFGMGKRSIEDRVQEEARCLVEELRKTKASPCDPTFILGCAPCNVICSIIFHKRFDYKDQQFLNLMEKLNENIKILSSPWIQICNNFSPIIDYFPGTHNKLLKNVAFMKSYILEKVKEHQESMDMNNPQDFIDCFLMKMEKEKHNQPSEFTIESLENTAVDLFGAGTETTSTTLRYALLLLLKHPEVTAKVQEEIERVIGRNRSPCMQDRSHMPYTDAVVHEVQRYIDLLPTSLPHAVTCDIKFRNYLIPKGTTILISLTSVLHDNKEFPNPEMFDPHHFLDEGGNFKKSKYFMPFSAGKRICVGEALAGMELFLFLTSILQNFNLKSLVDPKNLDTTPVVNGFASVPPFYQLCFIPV
- ASSAY_PROCEDURE: Cytochrome P450 family 2 subfamily C member 9 (CYP2C9) small molecule antagonists: luciferase biochemical (cell-free) qHTS assay (AID 1645842); also: nearly all actives have a fitted effect of over 55% in size
- STATED_CONDITIONS: P450-Glo CYP2C9 enzyme assay, luciferin luminescence; series mostly up to 57.4 µM
Results filed as inconclusive are left out. The source made the active and inactive calls. Calls come from the whole dose curve; as a rule, active = well fitted inhibition curve with a large enough effect in the repeat runs; inconclusive = weak or mixed curves; inactive = no such curve, though single readings can be large or run the other way.
Just give me one of these, please: Y = active, N = inactive

Known results for compounds:
CC1=C(C)C(=O)C(C(CCCCCC(=O)O)c2ccccc2)=C(C)C1=O (stereo not given) : Y
CCCc1cc(=O)[nH]c(=S)[nH]1 : N
CC[C@]1(O)C[C@H]2CN(CCc3c([nH]c4ccccc34)[C@@](C(=O)OC)(c3cc4c(cc3OC)N(C=O)[C@H]3[C@@](O)(C(=O)OC)[C@H](OC(C)=O)[C@]5(CC)C=CCN6CC[C@]43[C@@H]65)C2)C1 : N
C=CCc1cc(OC)c(O)c(C(=O)NCCO)c1 : N

Asked: How was CCCCCCCCOc1ccccc1C(=O)Nc1ccc(C(=O)OCC[N+](C)(CC)CC)cc1 classified in this test?
Given back: Y

----------
- ASSAY_PROCEDURE: Quantitative High-Throughput drug screen in 47 multiple myeloma cell lines against the NCATS MIPE library collection: FR4_PLB cell viability assay (AID 1918924; also: nearly all actives have a fitted effect of over 35% in size)
- STATED_CONDITIONS: FR4_PLB myeloma cells viability, CellTiter-Glo ATP, 48 h; series mostly up to 45.8 µM
Inconclusive results are not listed. Activity calls are given as the source filed them. Calls follow the shape of the dose curve; as a rule, active = well fitted cell-killing curve with a large enough effect; inconclusive = small, poorly fitted or top-dose-only effect, or effect the other way; inactive = no such curve, though single readings can be large or run the other way.
Just give me one of these, please: label 1 = active, label 0 = inactive

CCCOc1ccc2nc(NC(=O)OC)[nH]c2c1 : label 0
CC(C)c1ccc2oc3nc(N)c(C(=O)O)cc3c(=O)c2c1 : label 0
CCCCCCCCCCCCCCCCCCCCCCO : label 0
O=C1c2ccccc2-c2n[nH]c3cccc1c23 : label 0
N[C@@H](Cc1cc(I)c(Oc2cc(I)c(O)c(I)c2)c(I)c1)C(=O)O : label 0
Nc1ncn([C@H]2C[C@H](O)[C@@H](CO)O2)c(=O)n1 : label 0

Asked: How was O=C(O)c1cn(-c2ccc(F)cc2)c2cc(N3CCNCC3)c(F)cc2c1=O classified in this test?
Given back: label 0

Asked: How was CC(C)C[C@H](NC(=O)[C@H](Cc1ccccc1)NC(=O)c1cnccn1)B(O)O classified in this test?
Given back: label 1

----------
- ASSAY_PROCEDURE: Cell Viability - LYMP2-002 (AID 977);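 also: compound exposure lasted 24 h at 37 °C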
- STATED_CONDITIONS: LYMP2-002 lymphoblastoid cell viability, qHTS; series mostly up to 92.2 µM
- Text: NIH Chemical Genomics Center [NCGC] NIH Molecular Libraries Screening Centers Network [MLSCN] National Institutes of Environmental Health Sciences [NIEHS] National Toxicology Program [NTP] We have developed a 1536-well cell-based assay for quantitative high throughput screening (qHTS) against a number of cell lines to determine in vitro cytotoxicity of small molecules. […] 8. Detection; Luminescence; Viewlux plate reader […]
Records with an inconclusive call do not appear. Calls of active or inactive are those of the source. The call rests on the fitted dose curve; in most records, active means well fitted cell-killing curve with a large enough effect; inconclusive means small, poorly fitted or top-dose-only effect; inactive means flat fitted curve, though single readings scatter. Peptide text beside a SMILES is read from it.
Just give me one of these, please: YES for active, NO for inactive

Known results for molecules:
COc1c2occc2cc2ccc(=O)oc12 : NO
CCCc1cc(=O)[nH]c(=S)[nH]1 : NO
COC(=O)[C@H](Cc1ccccc1)NC(=O)[C@@H](N)CC(=O)O (H-Asp-Phe-OMe) : NO
NS(=O)(=O)c1cc(C(=O)O)c(NCc2ccco2)cc1Cl : NO
Nc1ccc(S(N)(=O)=O)cc1 : NO
Cc1ccc(C)c(OCCCC(C)(C)C(=O)O)c1 : NO
CS(=O)(=O)OCCCCOS(C)(=O)=O : NO
CC(=O)Nc1ccc(O)cc1 : NO

// next entry
Asked: How was CN(C)c1ccc2nc3ccc(=[N+](C)C)cc-3sc2c1 classified in this test?
Given back: YES

----------
- Tested on: C2A
- ASSAY_PROCEDURE: qHTS profiling for inhibitors of Plasmodium falciparum proliferation (AID 504749);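 also: 0% = DMSO vehicle and full inhibition = artemisinin control; nearly all actives have a fitted effect of over 60% in size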
- STATED_CONDITIONS: P. falciparum in erythrocytes, SYBR Green DNA, 72 h; series mostly up to 28.7 µM
Records with an inconclusive call do not appear. Calls of active or inactive are those of the source. The call rests on the fitted dose curve; in most records, active means well fitted inhibition curve with a large enough effect; inconclusive means small, poorly fitted or top-dose-only effect; inactive means flat fitted curve, though single readings scatter.
Just give me one of these, please: active, inactive

Known results for compounds:
CN1C(C(=O)Nc2ccccn2)=C(O)c2sccc2S1(=O)=O : inactive
O=C(NCCO[N+](=O)[O-])c1cccnc1 : inactive
CC(C)c1ccc2oc3nc(N)c(C(=O)O)cc3c(=O)c2c1 : inactive
CCN(CCO)CCCC(C)Nc1ccnc2cc(Cl)ccc12 (stereo unspecified) : inactive
CCCCC(CC)COC(=O)C(C#N)=C(c1ccccc1)c1ccccc1 (stereo unspecified) : inactive
Nc1nc(Cl)nc2c1ncn2[C@H]1C[C@H](O)[C@@H](CO)O1 : inactive

// next entry
Asked: How was Cc1ncc([N+](=O)[O-])n1CC(C)O (stereo unspecified) classified in this test?
Given back: inactive
